Reference source: patent US20220227729A1

KRAS^WT (Homo sapiens) measurements of pIC50, listed per entry.
Sequence (P01116 1-188 isoform P01116-2): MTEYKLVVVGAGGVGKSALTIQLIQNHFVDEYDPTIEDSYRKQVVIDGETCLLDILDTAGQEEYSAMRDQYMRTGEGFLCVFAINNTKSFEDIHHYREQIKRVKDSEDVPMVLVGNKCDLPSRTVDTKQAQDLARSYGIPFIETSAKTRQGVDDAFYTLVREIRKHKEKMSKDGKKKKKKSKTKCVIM
pIC50: −log10 of the molar value.
MEASURED_ATTRIBUTE: pIC50

* C=CC(=O)N1CCC(c2nc3ccc(-c4ccc(F)cc4F)cc3c(=O)[nH]2)C1 (centres unmarked) [Example 13] | < 4.70
* C=CC(=O)N1CCC(c2cc3ncc(-c4cccnc4N4CCOCC4)cc3c(=O)[nH]2)C1 (centres unmarked) [Example 35] | < 4.70
* C=CC(=O)N1CCC(c2cc3ncc(-c4c(F)cccc4OC)cc3c(=O)[nH]2)C1 (centres unmarked) [Example 28] | < 4.70
* C=CC(=O)N1CCC(c2nc3ccc(-c4cccc5ncccc45)cc3c(=O)[nH]2)C1 (centres unmarked) [Example 14] | < 4.70
* C=CC(=O)N1CCC(c2nc3cc(Cl)c(-c4ccccc4F)cc3c(=O)[nH]2)C1 (centres unmarked) [Example 22] | < 4.70
* C=CC(=O)N1CCC(c2cc3ncc(-c4ccc(F)cc4F)cc3c(=O)[nH]2)C1 (centres unmarked) [Example 31] | < 4.70
* C=CC(=O)N1CCC(c2cc3ccc(-c4ccc(F)c(F)c4F)cc3c(=O)[nH]2)C1 (centres unmarked) [Example 7] | < 4.70
* C=CC(=O)N1CCC(c2cc3ncc(-c4cccc5ncccc45)cc3c(=O)[nH]2)C1 (centres unmarked) [Example 32] | < 4.70
* C=CC(=O)N1CCC(c2cc3cc(OC)c(-c4ncccc4F)cc3c(=O)[nH]2)C1 (centres unmarked) [Example 9] | < 4.70
* C=CC(=O)N1CCC(c2nc3cc(Cl)c(-c4c(C)ccc5[nH]ncc45)cc3c(=O)[nH]2)C1 (centres unmarked) [Example 25] | < 4.70
* C=CC(=O)N1CCC(c2cc3ccc(-c4ccc(F)c(OCC)c4F)cc3c(=O)[nH]2)C1 (centres unmarked) [Example 6] | < 4.70
* C=CC(=O)N1CCC(c2cc3cc(O)c(-c4ncccc4F)cc3c(=O)[nH]2)C1 (centres unmarked) [Example 10] | < 4.70
* C=CC(=O)N1CCC(c2nc3cc(Cl)c(-c4ccc(F)cc4F)cc3c(=O)[nH]2)C1 (centres unmarked) [Example 23] | < 4.70
* C=CC(=O)N1CCC(c2nc3cnc(-c4c(O)cccc4F)cc3c(=O)[nH]2)C1 (centres unmarked) [Example 39] | < 4.70
